Target: T1, His-tagged cynomolgus monkey B7-H3 (cynomolgus monkey)
T1 chain: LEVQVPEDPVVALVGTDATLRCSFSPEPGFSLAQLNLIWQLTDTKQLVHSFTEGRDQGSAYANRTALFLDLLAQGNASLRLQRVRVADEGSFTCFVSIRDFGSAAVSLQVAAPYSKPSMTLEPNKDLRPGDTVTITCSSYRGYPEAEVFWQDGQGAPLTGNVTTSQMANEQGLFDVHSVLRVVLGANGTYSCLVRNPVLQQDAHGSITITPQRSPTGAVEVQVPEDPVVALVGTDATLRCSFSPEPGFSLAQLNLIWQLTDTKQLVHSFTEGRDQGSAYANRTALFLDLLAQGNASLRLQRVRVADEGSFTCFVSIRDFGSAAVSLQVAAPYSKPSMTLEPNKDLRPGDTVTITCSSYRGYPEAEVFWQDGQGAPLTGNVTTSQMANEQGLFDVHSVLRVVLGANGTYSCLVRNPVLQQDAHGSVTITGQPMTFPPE
Assay: ELISA, coated His-tagged antigen, scFv-Fc 1 ug/ml

- binder: "40633p1.2.C11 (scFv, V domains shown, Tested as scFv-Fc (Expi293 supernatant)) VH: EVQLLESGGGLVQPGGSLRLSCAASGFTFSSYWMSWVRQAPGKGLEWVAGINRNGGSTYYADSVKGRFTISRDNSENTLYLQVNSLRAEDTAVYYCARWNDYDIMDVWGQGTTVTVSS VL: QSVLTQPSSASGTPGQRVTISCSGSSSNVGRRAVNWYQQLPGTAPKLLISNSQRPSGVPDRFSGSKSGTSASLAISGLQSEDEADYYCATWDASLNSWVFGGGTKLTVL"
  readout-unit: "OD450"
  ELISA OD450 @ 1 ug/ml: 0.045
- binder: "40579p1.H7 (scFv, V domains shown, Tested as scFv-Fc (Expi293 supernatant)) VH: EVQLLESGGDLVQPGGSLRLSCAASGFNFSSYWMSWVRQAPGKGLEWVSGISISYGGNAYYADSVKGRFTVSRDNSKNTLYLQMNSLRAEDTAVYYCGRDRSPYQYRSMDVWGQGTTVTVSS VL: EIVLTQSPGTLSLSPGERATLSCRASQSIRSDLAWYQQKPGQAPRLLIYGASSRATGIPARFSGSGSGTEFTLTISSLQSEDFAVYYCQQYNNWPPLTFGGGTKVEIK"
  readout-unit: "OD450"
  ELISA OD450 @ 1 ug/ml: 1.73
- binder: "40633p1.2.D1 (scFv, V domains shown, Tested as scFv-Fc (Expi293 supernatant)) VH: EVQLLESGGGLVQPGGSLRLSCAASGFTFDVYGMSWVRQAPGKGLEWVSAINWNGGSTYYADSVKGRFTISRDNSENTLYLQMNSLRAEDTAVYYCAKEKWKHFIYYGMDVWGQGTTVTVSS VL: QSVLTQPASASGTPGQTVSISCSGSSSNIDSNTANWYQQLPGTAPKLLIYSNNQRPSGVPDRFSGSKSDTSASLAISGLQSEDEGDYYCSAWDDNLNGWLFGGGTKLTVL"
  readout-unit: "OD450"
  ELISA OD450 @ 1 ug/ml: 1.94
